- tested_on: CYP2B6 (Homo sapiens)
- Sequence (P20813 whole entry): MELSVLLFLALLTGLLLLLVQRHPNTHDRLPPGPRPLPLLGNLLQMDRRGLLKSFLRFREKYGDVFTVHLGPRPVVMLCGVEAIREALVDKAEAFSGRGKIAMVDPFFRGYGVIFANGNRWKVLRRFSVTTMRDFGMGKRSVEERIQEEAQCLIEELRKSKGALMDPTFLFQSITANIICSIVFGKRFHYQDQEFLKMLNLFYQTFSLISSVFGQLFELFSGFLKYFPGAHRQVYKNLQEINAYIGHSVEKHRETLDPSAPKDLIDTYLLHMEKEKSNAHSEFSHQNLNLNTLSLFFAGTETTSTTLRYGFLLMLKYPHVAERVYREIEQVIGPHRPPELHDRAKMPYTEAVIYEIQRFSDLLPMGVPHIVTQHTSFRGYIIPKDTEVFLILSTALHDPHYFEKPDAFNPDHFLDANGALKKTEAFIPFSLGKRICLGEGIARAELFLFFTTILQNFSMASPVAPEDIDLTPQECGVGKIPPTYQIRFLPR
- assay_comment: CYP inhibition in human liver microsomes
- condition_summary: human, human liver microsomes, probe bupropion
readout_type: activity at 20 min, 60 µM (%)
Give just the number in %; leave the unit off.

query: Which value of activity at 20 min, 60 µM has been reported for CCc1cc(Cl)c(OC)c(N2CCN(CC(O)CCNC(=O)c3cc4ccccc4[nH]3)CC2)c1 (stereo not shown) in the records?
result: 91

---

- Test system: CYP1A2 mRNA
- assay_comment: CYP induction, mRNA, primary cultured human hepatocytes
- Format: in vitro ADME
- condition_summary: Lot 336, 5 μM, read-out: CYP1A2 mRNA Fold Induction (fold of vehicle control)
readout_type: fold induction at 48 h, 5 µM
Lab note: jot the number down without any unit.

query: Which value of fold induction at 48 h, 5 µM has been reported for CCc1cc(Cl)c(OC)c(N2CCN(CC(O)CCNC(=O)c3cc4ccccc4[nH]3)CC2)c1 (stereo not shown) in the records?
result: 1.8

---

- System: CYP3A4 mRNA
- assay_comment: CYP induction, mRNA, primary cultured human hepatocytes
- Assay type: in vitro ADME
- condition_summary: human, primary cultured human hepatocytes, Lot 348B, 5 μM; read-out: CYP3A4 mRNA Fold Induction (fold of vehicle control)
readout_type: fold induction at 48 h, 5 µM
Lab note: jot the number down without any unit.

query: # query: fold induction at 48 h, 5 µM | item CCc1cc(Cl)c(OC)c(N2CCN(CC(O)CCNC(=O)c3cc4ccccc4[nH]3)CC2)c1 (stereo not shown) [R-VK4-116] | system: CYP3A4 mRNA
result: 2

---

- tested_on: MATE1 (Homo sapiens, UniProt Q96FL8)
- Construct: expressed in transfected cells; host or cells: MDCK-II cells
- Sequence (Q96FL8 whole entry): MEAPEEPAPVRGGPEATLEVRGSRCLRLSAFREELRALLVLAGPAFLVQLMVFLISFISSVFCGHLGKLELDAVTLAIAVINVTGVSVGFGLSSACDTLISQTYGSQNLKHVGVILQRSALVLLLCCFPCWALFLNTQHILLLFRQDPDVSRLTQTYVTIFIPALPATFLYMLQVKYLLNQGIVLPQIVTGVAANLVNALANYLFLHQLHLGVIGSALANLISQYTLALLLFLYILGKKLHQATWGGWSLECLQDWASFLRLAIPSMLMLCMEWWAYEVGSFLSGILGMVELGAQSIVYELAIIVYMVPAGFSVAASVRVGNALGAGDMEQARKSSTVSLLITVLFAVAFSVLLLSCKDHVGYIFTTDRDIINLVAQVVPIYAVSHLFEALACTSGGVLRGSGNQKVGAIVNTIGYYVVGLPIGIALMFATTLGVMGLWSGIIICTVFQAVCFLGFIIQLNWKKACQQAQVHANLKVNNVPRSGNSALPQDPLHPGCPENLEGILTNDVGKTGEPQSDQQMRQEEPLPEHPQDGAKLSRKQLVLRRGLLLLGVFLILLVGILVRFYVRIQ
- assay_comment: Transporter mediated assay (substrate/inhibitor), MDCK-II cells
- Format: in vitro ADME
- condition_summary: human, polarized monolayer of MDCK-II cells expressing MATE1; MATE1, No BSA, 100 μM
readout_type: inhibition at 100 µM (%)
Give just the number in %; leave the unit off.

query: Which value of inhibition at 100 µM has been reported for CN/C(=N/CCSCc1nc[nH]c1C)NC#N [cimetidine, reference compound] in the records?
result: 99.3

---

- assay_comment: Metabolic stability in liver microsomes
- condition_summary: dog, heat-inactivated liver microsomes, pH 7.4
readout_type: remaining at 0 h, 10 μM (%)
Give just the number in %; leave the unit off.

query: Which value of remaining at 0 h, 10 μM has been reported for CCc1cc(Cl)c(OC)c(N2CCN(CC(O)CCNC(=O)c3cc4ccccc4[nH]3)CC2)c1 (stereo not shown) in the records?
result: 100

---

- Test system: CYP1A2 mRNA
- assay_comment: CYP induction, mRNA, primary cultured human hepatocytes
- Assay type: in vitro ADME
- condition_summary: Lot 348B, 5 μM, read-out: CYP1A2 mRNA Fold Induction (fold of vehicle control)
readout_type: fold induction at 48 h, 5 µM

query: Which value of fold induction at 48 h, 5 µM has been reported for CCc1cc(Cl)c(OC)c(N2CCN(CC(O)CCNC(=O)c3cc4ccccc4[nH]3)CC2)c1 (stereo not shown) [R-VK4-116] in the records?
result: 1.6

---

- assay_comment: Metabolic stability in hepatocyte
- condition_summary: Sprague Dawley, rat, hepatocytes in suspension
readout_type: hepatocyte CLint at 10 μM (µL/min/1e6 cells)
Give just the number in µL/min/1e6 cells; leave the unit off.

query: Which value of hepatocyte CLint at 10 μM has been reported for CCc1cc(Cl)c(OC)c(N2CCN(CC(O)CCNC(=O)c3cc4ccccc4[nH]3)CC2)c1 (stereo not shown) in the records?
result: 8.2
